target-entity: soluble HLA-B*07:02 class I molecule (fluorescence polarization assay)
test-name: fluorescence polarisation
property: IC50 (µM)
The reply should be a number in µM, with the unit left off.

# get_value(readout='IC50', item= GAGGVGKSAL [KRAS 10-19 wild-type peptide] )
76.9
